Tested on: NCI-H1437
measurementNotes: relative viability (nuclei count vs DMSO), 5 days (fraction); higher = more cells survive
conditionInfo: first compound 0.002 µM

[
  {
    "molecule": "CC(=O)O[C@@]12CO[C@@H]1C[C@H](O)[C@@]1(C)C(=O)[C@H](O)C3=C(C)[C@@H](OC(=O)[C@H](O)[C@@H](NC(=O)OC(C)(C)C)c4ccccc4)C[C@@](O)([C@@H](OC(=O)c4ccccc4)[C@H]21)C3(C)C [Docetaxel] + O=C(c1cc(Cc2n[nH]c(=O)c3ccccc23)ccc1F)N1CCN(C(=O)C2CC2)CC1 [Olaparib] (partner 8 µM)",
    "subjectOfTest": "NCI-H1437",
    "relative viability": 0.384
  },
  {
    "molecule": "CC(=O)O[C@@]12CO[C@@H]1C[C@H](O)[C@@]1(C)C(=O)[C@H](O)C3=C(C)[C@@H](OC(=O)[C@H](O)[C@@H](NC(=O)OC(C)(C)C)c4ccccc4)C[C@@](O)([C@@H](OC(=O)c4ccccc4)[C@H]21)C3(C)C [Docetaxel] + COc1cccc2cc(-c3nc([C@H]4CC[C@H](C(=O)O)CC4)n4ncnc(N)c34)[nH]c12 [OSI-027] (partner 0.5 µM)",
    "subjectOfTest": "NCI-H1437",
    "relative viability": 0.311
  },
  {
    "molecule": "CC(=O)O[C@@]12CO[C@@H]1C[C@H](O)[C@@]1(C)C(=O)[C@H](O)C3=C(C)[C@@H](OC(=O)[C@H](O)[C@@H](NC(=O)OC(C)(C)C)c4ccccc4)C[C@@](O)([C@@H](OC(=O)c4ccccc4)[C@H]21)C3(C)C [Docetaxel] + Nc1ncn([C@H]2C[C@H](O)[C@@H](CO)O2)c(=O)n1 [Decitabine] (partner 2 µM)",
    "subjectOfTest": "NCI-H1437",
    "relative viability": 0.406
  }
]

----------
# relative viability per entry
Tested on: LCLC-97TM1
measurementNotes: relative viability (nuclei count vs DMSO), 5 days (fraction); higher = more cells survive
conditionInfo: first compound 0.5 µM
parameterMeasured: relative viability

[
  {
    "molecule": "COc1cc2nccc(Oc3ccc(NC(=O)Nc4cc(C)on4)c(Cl)c3)c2cc1OC [Tivozanib] + CS(=O)(=O)CCNCc1ccc(-c2ccc3ncnc(Nc4ccc(OCc5cccc(F)c5)c(Cl)c4)c3c2)o1 [Lapatinib] (partner 2 µM)",
    "recordedMeasurement": 0.821
  },
  {
    "molecule": "Nc1ccn([C@@H]2O[C@H](CO)[C@@H](O)[C@@H]2O)c(=O)n1 [Cytarabine] + O=C(CCCCCCC(=O)Nc1ccccc1)NO [Vorinostat] (partner 1 µM)",
    "recordedMeasurement": 0.102
  },
  {
    "molecule": "COc1cc2nccc(Oc3ccc(NC(=O)Nc4cc(C)on4)c(Cl)c3)c2cc1OC [Tivozanib] + Cc1nc(Nc2ncc(C(=O)Nc3c(C)cccc3Cl)s2)cc(N2CCN(CCO)CC2)n1 [Dasatinib] (partner 0.075 µM)",
    "recordedMeasurement": 0.836
  }
]

----------
Test system: CAL-12T
measurementNotes: relative viability (nuclei count vs DMSO), 5 days (fraction); higher = more cells survive
conditionInfo: first compound 0.1265 µM
Listed next: entries and their corresponding relative viability.

[
  {
    "compound": "Cc1sc2c(c1C)C(c1ccc(Cl)cc1)=N[C@@H](CC(=O)OC(C)(C)C)c1nnc(C)n1-2 [JQ1] + Cc1cc(Nc2cc(N3CCN(C)CC3)nc(Sc3ccc(NC(=O)C4CC4)cc3)n2)n[nH]1 [Tozasertib] (partner 0.1 µM)",
    "subjectOfTest": "CAL-12T",
    "relative viability": 0.238
  },
  {
    "compound": "Cc1sc2c(c1C)C(c1ccc(Cl)cc1)=N[C@@H](CC(=O)OC(C)(C)C)c1nnc(C)n1-2 [JQ1] + Cc1nc(Nc2ncc(C(=O)Nc3c(C)cccc3Cl)s2)cc(N2CCN(CCO)CC2)n1 [Dasatinib] (partner 0.075 µM)",
    "subjectOfTest": "CAL-12T",
    "relative viability": 0.332
  },
  {
    "compound": "Cc1sc2c(c1C)C(c1ccc(Cl)cc1)=N[C@@H](CC(=O)OC(C)(C)C)c1nnc(C)n1-2 [JQ1] + CCNC(=O)c1noc(-c2cc(C(C)C)c(O)cc2O)c1-c1ccc(CN2CCOCC2)cc1 [Luminespib] (partner 0.01 µM)",
    "subjectOfTest": "CAL-12T",
    "relative viability": 0.184
  },
  {
    "compound": "Cc1sc2c(c1C)C(c1ccc(Cl)cc1)=N[C@@H](CC(=O)OC(C)(C)C)c1nnc(C)n1-2 [JQ1] + C[C@@H](Oc1cc(-c2cnn(C3CCNCC3)c2)cnc1N)c1c(Cl)ccc(F)c1Cl [Crizotinib] (partner 1 µM)",
    "subjectOfTest": "CAL-12T",
    "relative viability": 0.316
  },
  {
    "compound": "Cc1sc2c(c1C)C(c1ccc(Cl)cc1)=N[C@@H](CC(=O)OC(C)(C)C)c1nnc(C)n1-2 [JQ1] + CC1(C)CCC(c2ccc(Cl)cc2)=C(CN2CCN(c3ccc(C(=O)NS(=O)(=O)c4ccc(N[C@H](CCN5CCOCC5)CSc5ccccc5)c(S(=O)(=O)C(F)(F)F)c4)cc3)CC2)C1 [Navitoclax] (partner 0.5 µM)",
    "subjectOfTest": "CAL-12T",
    "relative viability": 1.29
  },
  {
    "compound": "Cc1sc2c(c1C)C(c1ccc(Cl)cc1)=N[C@@H](CC(=O)OC(C)(C)C)c1nnc(C)n1-2 [JQ1] + CC(=O)c1c(C)c2cnc(Nc3ccc(N4CCNCC4)cn3)nc2n(C2CCCC2)c1=O [Palbociclib] (partner 0.5 µM)",
    "subjectOfTest": "CAL-12T",
    "relative viability": 0.377
  }
]
